B1: Twister Ribozyme (parent)
chain: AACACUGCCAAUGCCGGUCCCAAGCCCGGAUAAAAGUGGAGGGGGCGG

Variants of: B1
Assay Remarks: self-cleavage, relative activity (ratio to wild type); higher = more cleavage; co-transcriptional
Grouping key: self-cleavage. Bins: low range = under 0.1, mid range = from 0.1 up to 0.4, high range = 0.4 and over

Mutation Spec	Cat
G42A G44U	mid range
G44A G47U	high range
G13A G17C	low range
A35C G38U	high range
G44C G48U	mid range
A40U G45C	mid range
G16C U31G	high range
C8U G38U	high range
A4G G39C	mid range
C8A G39C	mid range
C3G A30U	high range
G7U C46A	low range
C19A C26G	low range
C26U A33C	mid range
C15G U18G	low range
G44C C46G	mid range
A1G C20A	mid range
G44C G47U	mid range
A4G U18C	high range
A35G G43U	mid range
C8G G41A	mid range
C21U A35C	mid range
A30U G47C	high range
C3U C46G	high range
G28A U31G	high range
A30G G43C	mid range
G7C C20U	mid range
G29U G47U	high range
A2G C3U	low range
C46G G47U	high range
C14G G41U	mid range
C8U G36U	mid range
A33C G41U	mid range
A1U C27G	low range
U12C G42C	high range
U12A G13U	high range
A4C A33G	mid range
A4U G41A	low range
U6A G38C	high range
U18A U31A	high range
A32G G48A	high range
A40U G42A	mid range
G24A U31C	low range
G16A G17U	mid range
A10U C15U	high range
U12A C20U	high range
G29U A32G	high range
C3G U12A	high range
G7U C9U	low range
C9G G24U	low range
C15G C21G	low range
G24A G45A	mid range
A40U G44U	mid range
G16U A22G	mid range
C19G A32U	mid range
C5A C26G	low range
G43A G44A	mid range
C5U G39A	mid range
C26A G47U	mid range
G45A G48U	high range
C25A A30C	low range
A1G U37A	mid range
A11C G13A	mid range
A30U G48C	high range
C3U G29U	high range
U31A C46A	high range
U31C A40U	mid range
C26A A40U	mid range
U6G G39U	mid range
C9U C15A	mid range
A2U A10G	high range
G17C G45A	mid range
G17A G44A	high range
C15A G45A	high range
A2U G43U	mid range
C15A G16C	mid range
